Data provenance is ChEMBL document CHEMBL6114933.

tested on: Staphylococcus aureus; experiment: Antibacterial activity against drug-sensitive Staphylococcus aureus ATCC25923 assessed as inhibition of bacterial growth; type: functional
OBSERVABLE: MIC50 (µM)

> print(dat)
                            molecule.smiles  measurement.unit  value.operator  reported.result
1  CC(C)C(=O)c1c(Nc2ccc(Cl)cc2Cl)[nH]c2c(F)cc(F)cc2c1=O                µM               =              0.2
2  CC(=O)c1c(Nc2ccc(F)c(F)c2F)[nH]c2c(F)cc(F)cc2c1=O                µM               =             1.11
3  COc1ccc(Nc2[nH]c3c(F)cc(F)cc3c(=O)c2C(C)=O)cc1                µM               >               20
4  CC(C)C(=O)c1c(Nc2ccc(F)cc2F)[nH]c2c(F)cc(F)cc2c1=O                µM               =             1.36
5  CC(C)C(=O)c1c(Nc2ccc(F)c(F)c2F)[nH]c2c(Cl)cc(Cl)c(Cl)c2c1=O                µM               =             0.04
6  CC(=O)c1c(NCc2ccc(F)cc2F)[nH]c2c(F)cc(F)cc2c1=O                µM               >               20
7  CC(=O)c1c(Nc2cc(F)cc(F)c2)[nH]c2c(F)cc(F)cc2c1=O                µM               >               20
8  CC(=O)c1c(N2CCOCC2)[nH]c2c(F)cc(F)cc2c1=O                µM               >               20
